Each recorded value in this set is attributed to patent US20230150951A1.

Trichrome staining (Kidney fibrosis) values for the compounds below.
tested on: STZ-induced diabetes model; assay: STZ-induced diabetic nephropathy, kidney disease and retinopathy model (28 days treatment); conditions: day 28 of treatment (week 9); 15 mg/kg IV, Captopril 50 mg/kg PO

{"COMPOUND": "O=C(O)c1cc(NC(=O)c2cc(O)c(C(=O)Nc3ccccc3-c3nnn[nH]3)cc2O)ccc1O [Ic-001a-Tz/004a]", "Trichrome staining (Kidney fibrosis)": 2.48}
{"COMPOUND": "O=C(O)c1cc(NC(=O)c2cc(O)c(C(=O)Nc3ccc(O)c(C(=O)O)c3)cc2O)ccc1O [Ic-007a]", "Trichrome staining (Kidney fibrosis)": 2.23}
{"COMPOUND": "O=C(O)c1cc(O)c(CN(Cc2cc(O)c(C(=O)O)cc2O)Cc2cc(O)c(C(=O)O)cc2O)cc1O [IIIc-061a]", "Trichrome staining (Kidney fibrosis)": 1.54}
{"COMPOUND": "O=C(O)c1cc(O)c(C(=O)Nc2ccccc2C(=O)O)cc1O [Ia-001a]", "Trichrome staining (Kidney fibrosis)": 1.87}

###

test system: IL-9; experiment: Cytokine release after LPS induction on human whole blood: IL-9; assay type: cell-based; details: Homo sapiens, read-out: IC50 IL-9
pIC50: −log10 of the molar value.
RECORDED_METRIC: pIC50

{"COMPOUND": "O=C(O)c1cc(NC(=O)c2cc(O)c(C(=O)Nc3ccccc3-c3nnn[nH]3)cc2O)ccc1O [Ic-001a-Tz/004a]", "QUANTITATIVE_READOUT": 5.07}

###

biological target: FGF-1 (Homo sapiens); assay: FGF-1 induced sprouting of HUVEC, spheroid-based cellular angiogenesis assay; conditions: FGF-1 25 ng/mL preincubated with compound, 24 h
pIC50: −log10 of the molar value.

{"COMPOUND": "O=C(O)c1cccc(NC(=O)c2cc(O)cc(C(=O)O)c2O)c1 [IIa-002a]", "RELATION": "=", "pIC50": 4.72}
{"COMPOUND": "O=C(O)c1cc(O)c(C(=O)Nc2ccc(O)cc2C(=O)O)cc1O [Ia-006a]", "RELATION": "=", "pIC50": 4.05}
{"COMPOUND": "CCOC(=O)c1cc(O)c(C(=O)Nc2ccccc2-c2nnn[nH]2)cc1O [Ia-001a-Tz-E1]", "RELATION": "≤", "pIC50": 3.70}

###

IC50 values for the compounds below.
target: FGF-2 (Homo sapiens, UniProt P09038); experiment: FGF-2 induced sprouting of HUVEC, spheroid-based cellular angiogenesis assay; details: FGF-2 25 ng/mL preincubated with compound, 24 h
Sequence (P09038 134-288): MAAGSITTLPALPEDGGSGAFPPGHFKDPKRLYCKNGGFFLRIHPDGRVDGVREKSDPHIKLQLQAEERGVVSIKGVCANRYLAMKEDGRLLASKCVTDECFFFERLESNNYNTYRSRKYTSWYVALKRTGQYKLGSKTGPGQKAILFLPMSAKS
RECORDED_METRIC: IC50

{"COMPOUND": "O=C(O)c1cc(NC(=O)c2cc(O)cc(C(=O)O)c2O)cc(C(=O)O)c1 [IIa-015a]", "RECORDED_METRIC": "IC50", "RESULT": "125 µM"}
{"COMPOUND": "O=C(O)c1cc(NC(=O)c2cc(O)cc(C(=O)Nc3ccc(O)c(C(=O)O)c3)c2O)ccc1O [IIc-007a]", "RECORDED_METRIC": "IC50", "RESULT": "91 µM"}
{"COMPOUND": "O=C(O)c1cc(NC(=O)c2cc(O)c(C(=O)Nc3ccccc3-c3nnn[nH]3)cc2O)ccc1O [Ic-001a-Tz/004a]", "RECORDED_METRIC": "IC50", "RESULT": "87 µM"}

###

IC50 values for the compounds below.
Target: VEGF-A (Homo sapiens, UniProt P15692)
Construct: purchased ProQinase GmbH
Sequence (P15692 27-191 isoform P15692-4): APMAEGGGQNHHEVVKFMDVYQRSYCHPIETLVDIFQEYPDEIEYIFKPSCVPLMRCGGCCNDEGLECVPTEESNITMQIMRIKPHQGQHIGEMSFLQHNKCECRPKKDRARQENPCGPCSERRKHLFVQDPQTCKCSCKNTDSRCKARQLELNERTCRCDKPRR
Experiment: VEGF-A induced sprouting of HUVEC, spheroid-based cellular angiogenesis assay
Type: cell-based
Conditions: VEGF-A 25 ng/mL preincubated with compound, 24 h, read-out: VEGF-A1 IC50

{"COMPOUND": "O=C(O)c1ccc(C(=O)O)c(NC(=O)c2cc(O)c(C(=O)O)cc2O)c1 [Ia-012a]", "TARGET_OF_ASSAY": "VEGF-A (Homo sapiens, UniProt P15692)", "IC50": "30 µM"}
{"COMPOUND": "CCOC(=O)c1cc(OC(C)=O)c(C(=O)Nc2ccccc2-c2nnn[nH]2)cc1OC(C)=O [Ia-001a-Tz-E1-A2]", "TARGET_OF_ASSAY": "VEGF-A (Homo sapiens, UniProt P15692)", "IC50": "≥ 200 µM"}
{"COMPOUND": "O=C(O)c1cc(O)c(C(=O)Nc2ccccc2S(=O)(=O)O)cc1O [Ia-001c]", "TARGET_OF_ASSAY": "VEGF-A (Homo sapiens, UniProt P15692)", "IC50": "≥ 100 µM"}

###

molecular target: FGF-2 (Homo sapiens, UniProt P09038); assay: FGF-2 induced sprouting of HUVEC, spheroid-based cellular angiogenesis assay; details: FGF-2 25 ng/mL preincubated with compound, 24 h
pIC50: −log10 of the molar value.
RECORDED_METRIC: pIC50

{"COMPOUND": "O=C(O)c1ccc(C(=O)O)c(NC(=O)c2cc(O)c(C(=O)O)cc2O)c1 [Ia-012a]", "QUANTITATIVE_READOUT": 4.44}
{"COMPOUND": "O=C(O)c1cc(O)c(C(=O)NC(C(=O)O)c2ccc(O)c(O)c2)cc1O (stereo not drawn) [Ia-036a]", "QUANTITATIVE_READOUT": 4.43}
{"COMPOUND": "O=C(O)c1cc(O)c(CSCc2cc(O)c(C(=O)O)cc2O)cc1O [IIIc-058a]", "QUANTITATIVE_READOUT": 4.92}
{"COMPOUND": "O=C(O)Cc1ccccc1NC(=O)c1cc(O)cc(C(=O)O)c1O [IIa-034a]", "QUANTITATIVE_READOUT": 5.24}
{"COMPOUND": "O=C(O)c1ccc(NC(=O)c2cc(O)c(C(=O)O)cc2O)cc1 [Ia-003a]", "QUANTITATIVE_READOUT": 4.47}
{"COMPOUND": "O=C(O)c1ccc(NC(=O)c2cc(O)cc(C(=O)O)c2O)cc1 [IIa-003a]", "QUANTITATIVE_READOUT": 4.89}

###

target: FGF-1 (Homo sapiens, UniProt P05230); assay: FGF-1 induced sprouting of HUVEC, spheroid-based cellular angiogenesis assay; conditions: FGF-1 25 ng/mL preincubated with compound, 24 h
Sequence (P05230 whole entry): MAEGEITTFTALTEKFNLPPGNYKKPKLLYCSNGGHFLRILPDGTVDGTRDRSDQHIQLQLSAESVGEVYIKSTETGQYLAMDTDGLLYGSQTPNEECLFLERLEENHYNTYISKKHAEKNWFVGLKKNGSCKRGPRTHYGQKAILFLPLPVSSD
RECORDED_METRIC: log10 IC50 (log10 of the value in µM)

{"COMPOUND": "O=C(O)Cc1cc(O)c(C(=O)Nc2ccccc2C(=O)O)cc1O [IIIa-001a]", "QUANTITATIVE_READOUT": 1.79}
{"COMPOUND": "O=C(O)c1ccc(NC(=O)c2cc(O)cc(C(=O)O)c2O)cc1 [IIa-003a]", "QUANTITATIVE_READOUT": 1.34}
{"COMPOUND": "O=C(O)c1cc(O)c(C(=O)NCc2ccc(O)c(O)c2)cc1O [Ia-035a]", "QUANTITATIVE_READOUT": 1.30}
{"COMPOUND": "O=C(O)c1cc(O)cc(C(=O)Nc2c(C(=O)O)cccc2C(=O)O)c1O [IIa-013a]", "QUANTITATIVE_READOUT": 2.14}
{"COMPOUND": "CCOC(=O)c1cc(O)c(C(=O)Nc2ccc(O)c(C(=O)OC)c2)cc1O [Ia-004a-E2]", "QUANTITATIVE_READOUT": 1.54}
{"COMPOUND": "O=C(O)c1cc(O)c(C(=O)Nc2cccc(S(=O)(=O)O)c2)cc1O [Ia-002c]", "QUANTITATIVE_READOUT": 1.15}
{"COMPOUND": "O=C(O)c1cc(O)c(C(=O)Nc2cccc(C(=O)O)c2C(=O)O)cc1O [Ia-011a]", "QUANTITATIVE_READOUT": 1.54}
{"COMPOUND": "O=C(O)c1cc(O)cc(C(=O)NCc2ccc(O)c(O)c2)c1O [IIa-035a]", "QUANTITATIVE_READOUT": 1.20}
{"COMPOUND": "O=C(O)c1cc(O)c(C(=O)Nc2ccccc2S(=O)(=O)O)cc1O [Ia-001c]", "QUANTITATIVE_READOUT": 1.32}
{"COMPOUND": "O=C(O)c1cc(NC(=O)c2cc(O)cc(C(=O)Nc3ccc(O)c(C(=O)O)c3)c2O)ccc1O [IIc-007a]", "QUANTITATIVE_READOUT": 1.04}
{"COMPOUND": "COC(=O)c1cc(NC(=O)c2cc(O)c(C(=O)Nc3ccccc3-c3nnn[nH]3)cc2O)ccc1O [Ic-001a-Tz/004a-E1]", "QUANTITATIVE_READOUT": 2.02}
{"COMPOUND": "O=C(O)c1ccccc1CNC(=O)c1cc(O)cc(C(=O)O)c1O [IIa-053a]", "QUANTITATIVE_READOUT": 1.92}
{"COMPOUND": "O=C(O)c1cc(NC(=O)c2cc(O)cc(C(=O)O)c2O)ccc1O [IIa-004a]", "QUANTITATIVE_READOUT": 1.67}
{"COMPOUND": "O=C(O)c1cc(O)c(C(=O)Nc2cccc(-c3nnn[nH]3)c2)cc1O [Ia-002a-Tz]", "QUANTITATIVE_READOUT": 1.00}
